# target under test: T1, Soluble CD28-Ig (extracellular domain of human CD28 fused to the Fc portion of human IgG1) (human, UniProt P10747 19-152, biotin-conjugated (NHS-biotin) in the FACS binding assays)
# T1 construct: extracellular domain; bought from R&D Systems; also called sCD28-Ig; CD28-Ig Fc; not shown: Fc portion of human IgG1
# assay method text: competitive FACS on transfected cells, biotin-sCD28-Ig with FITC-sCTLA-4-Ig; grade 0-2 of CD28/CTLA-4 ratio vs WT hB7-1
recorded endpoint: Binding Score
One number for each entry.

# example entries with known answers
binder	Binding Score
Round 2 CD28A2-5 (ligand) ITPKSVTKRVKETVMLSCDYNTSTEELTSLRIYWQKDSKMVLAILPGKVQVWPEYKNRTITDMNDNPRIVILALRLSDSGTYTCVIQKPDLKGAYKLEHLASVRLMIRADFPVPSITDIGHPAPNVKRIRCSASGGFPEPRLAWMEDGEELNAVNTTVDQDLDTELYSVSSELDFNMTSNHSFLCLVKYGDLTVSQTFYWQESKPTPSANQHLTWTIIIPVSAFGISVIIAVILTCLTCRNAAIRRQRRENEGKCKVLSVSIGTKLKFNR	0
Round 2 CD28BP-13 (ligand) ITPKSVTKRVKETVMLSCDYSTSTEELTSLRIYWQKDSKMVLAILPGKVQVWPEYKNRTITDMNDNPRIVILALRLSDSGTYTCVIQKPVLKGAYKLEHLASVRLMIRADFPVPTINDLGNPSPNIRRLICSTSGGFPEPRLAWMEDGEELNAVNTTVDQDLDTELYSVSSELDFNVTNNHSIVCLIKYGELSVSQIFPWSKPKQEPPIDQLPFWVIIPVSGALVLTAVVLYCLACRHVARWKRTRRNEETVGTERLSPIYLGSAQSSG	2
Round 2 CD28C8-6 (ligand) ITPKSVTKRVKETVMLSCDYNTSTEELTSLRIYWQKDSKMVLAILPGKVQVWPEYKNRTITDMNDNPRIVILALRLSDSGTYTCVIQKPVLKGAYKLEHLASVRLMIRADFPVPTINDLGNPSPNIRRLICSTSGGFPRPHLYWLENGEELNATNTTVSQDPGTELYMISSELGFNVTNNHSIVCLIKYGELSVSQIFPWSKPKQEPPIDQLPFWVIIPVSGALVLTAVVLYCLACRHVARWKRTRRNEETVGTERLSPIYLGSAQSSG	2
Round 2 CD28G1-5 (ligand) SGITPKSVTKRVKETVMLSCDYSTSTEELTSLRIYWQKDSKMVLAILPGKVQVWPEYKNRTFPDIINNLSLMILALRLSDKGTYTCVVQKNENGSFRREHLTSVTLSIRADFPVSSITDIGHPAPNVKRIRCSASGGFPEPRLAWMEDGEELNAVNTTVDQDLDTELYSVSSELDFNVTNNHSIVCLIKYGELSVSQIFPWSKPKQEPPIDQLPFWVIIPVSGALVLTAVVLYCLACRHVARWKRTRRNEETVGTERLSPIYLGSAQSSG	1

## Input Quote Binding Score reported for Round 1 CD28BP-126 (ligand, also called R1clone 126; Clone 126) ITPKSVTKRVKETVMLSCDYSTSTEELTSLRIYWQKDSKMVLAILPGKVQVWPEYKNRTITDMNDNPRIVILALRLSDSGTYTCVIQKPDLKGAYKLEHLTSVRLMIRADFPVPTINDLGNPSPNIRRLICSTSGGFPRPHLYWLENGEELNATNTTVSQDPGTELYMISSELDFNVTNNHSIVCLIKYGELSVSQIFPWSKPKQEPPIDQLPFWVIIPVSGALVLTAVVLYCLACRHVARWKRTRRNEETVGTERLSPIYLGSAQSSG please.
## Output 1
